experiment: qHTS of pediatric cancer cell lines to identify multiple opportunities for drug repurposing: Primary screen for BT-37 cells (AID 1347094); settings: BT-37 viability, CellTiter-Glo luminescence, 48 h; series mostly up to 57.3 µM
Records with an inconclusive call do not appear. Activity calls are given as the source filed them. Calls follow the shape of the dose curve; as a rule, active = well fitted cell-killing curve with a large enough effect; inconclusive = small, poorly fitted or top-dose-only effect; inactive = flat fitted curve, though single readings scatter.
Lab note: assign the record to one of active, inactive

Consider the following illustrative entries.
CC(C)(C)c1nnc(NS(=O)(=O)c2ccc(N)cc2)s1; inactive
S=c1[nH]c2ccccc2s1; inactive
CC(C(=O)O)c1ccc2c(c1)[nH]c1ccc(Cl)cc12 (configuration not stated); inactive
Nc1ccc(O)c([N+](=O)[O-])c1; inactive
C=CCCCCCCCCC(=O)O; inactive
O=C(Nc1ccc(C(=O)O)c(O)c1)c1ccccc1; inactive

Request: Record request — test call for COC(=O)Nc1nc2ccc(C(=O)C3CC3)cc2[nH]1
Response: active

---

assay: Cell Viability - LYMP1-002 - Assay at 24 hr (AID 993); details: LYMP1-002 lymphoblastoid cells viability; series mostly up to 92.2 µM
Active and inactive are the calls of the source. Calls come from the whole dose curve; as a rule, active = well fitted cell-killing curve with a large enough effect; inconclusive = small, poorly fitted or top-dose-only effect; inactive = flat fitted curve, though single readings scatter.
quantity_kind: outcome

CN1CCC[C@H]1c1cccnc1; inactive
CC(C)NCC(O)COc1cccc2ccccc12 (stereo not drawn); inactive
CN(C)c1ccc(N=NS(=O)(=O)O)cc1; inactive

---

test system: AA1029; test: qHTS profiling for inhibitors of Plasmodium falciparum proliferation (AID 504749); also: nearly all actives have a fitted effect of over 60% in size; conditions: P. falciparum in erythrocytes, SYBR Green DNA, 72 h; series mostly up to 28.7 µM
Inconclusive results are not listed. Active and inactive are the calls of the source. Calls come from the whole dose curve; as a rule, active = well fitted inhibition curve with a large enough effect; inconclusive = small, poorly fitted or top-dose-only effect; inactive = flat fitted curve, though single readings scatter.
Lab note: assign the record to one of true (1) (active), false (0) (inactive)

Consider the following illustrative entries.
CC(C(=O)O)c1ccc2c(c1)[nH]c1ccc(Cl)cc12 (centres undefined); false (0)
CN1CCN(c2cc3c(nn2)Oc2ccccc2N3C)CC1; false (0)
C=CCN1C(=O)C(CC(C)C)NC1=S (centres undefined); false (0)
Cc1[nH]cnc1CN1CCc2c(c3ccccc3n2C)C1=O; false (0)
CCC1C(=O)OCC1Cc1cncn1C (centres undefined); false (0)
Cc1ccc(O)c(-n2nc3ccccc3n2)c1; false (0)

Request: Record request — test call for CCOc1ccc2nc(S(N)(=O)=O)sc2c1
Response: false (0)

Request: Record request — test call for CCCCCC[C@@H](O)C/C=C\CCCCCCCC(=O)O
Response: false (0)

Request: Record request — test call for Nc1cc(-c2ccncc2)c[nH]c1=O
Response: false (0)

Request: Record request — test call for Cc1ccccc1CNc1ncnc2c1ncn2C1OC(CO)C(O)C1O (centres undefined)
Response: false (0)

Request: Record request — test call for C#C[C@]1(O)CC[C@H]2[C@@H]3CCc4cc(O)ccc4[C@H]3CC[C@@]21C
Response: false (0)

Request: Record request — test call for Cc1cc(O)c2ccccc2c1O
Response: false (0)

Request: Record request — test call for O=C(O)[C@H](O)[C@@H](O)[C@H](O)[C@H](O)CO
Response: false (0)

Request: Record request — test call for CC1(C)S[C@@H]2[C@H](NC(=O)[C@H](NC(=O)N3CCN(S(C)(=O)=O)C3=O)c3ccccc3)C(=O)N2[C@H]1C(=O)O
Response: false (0)

Request: Record request — test call for c1ccc2sc(SN3CCOCC3)nc2c1
Response: false (0)

Request: Record request — test call for Nc1c(CC(=O)O)cccc1C(=O)c1ccc(Br)cc1
Response: false (0)

Request: Record request — test call for CN(C)c1ccc(C(=C2C=CC(=[N+](C)C)C=C2)c2ccccc2)cc1
Response: true (1)

Request: Record request — test call for Cc1ccc(C(=O)c2ccc(CC(=O)O)n2C)cc1
Response: false (0)

Request: Record request — test call for O=C(OCc1ccccc1)c1ccccc1
Response: false (0)

Provenance of the data: PubChem BioAssay (NCATS)
